System: CFPAC-1
Assay: PrestoBlue cell viability, CFPAC-1
Type: cell-based
Conditions: Homo sapiens; pancreas, CFPAC-1, 48 h
Protocol: Human lung cancer cells A549, NCl-H460 and 7 cancer cell lines were cultured in RPMI 1640 medium containing 10% FBS (Gibco, USA) and 1% penicillin-streptomycin. […] First, the cells are seeded in a 96-well plate (Nunc, 165305) at a volume of 100 μl, and then cultured in an incubator overnight to confirm that they grow well on the plate. […] The IC50 value is calculated by using the Gen5 software.
pIC50: −log10 of the molar value.
Exercise: state measured pIC50 for each of the compounds provided.

Field: example entries. Status: answers known.
[[record]]
compound = "COc1cc([C@@H]2C3=C(COC3=O)Cc3cc4c(cc32)OCO4)cc(OC)c1OC(C)=O"
experimental_system = "CFPAC-1"
measured_quantity = "pIC50"
result = "< 4.30"

[[record]]
compound = "COc1cc([C@@H]2c3cc4c(cc3[C@@H](O[C@@H]3O[C@@H]5CO[C@@H](C)O[C@H]5[C@H](O)[C@H]3O)[C@H]3COC(=O)[C@H]23)OCO4)cc(OC)c1O [Etoposide, reference compound]"
experimental_system = "CFPAC-1"
measured_quantity = "pIC50"
result = 4.38

[[record]]
compound = "COc1cc([C@@H]2C3=C(COC3=O)Cc3cc4c(cc32)OCO4)cc(OC)c1OC(=O)c1ccccc1"
experimental_system = "CFPAC-1"
measured_quantity = "pIC50"
result = "< 4.30"


From here, focus on the item given below.
Ask | What does the record list as pIC50 for `COc1cc([C@@H]2C3=C(COC3=O)Cc3cc4c(cc32)OCO4)cc(OC)c1OCc1ccccc1` ?
Reply | < 4.30

###

System: HL-60
Test: PrestoBlue cell viability, HL-60
Assay type: cell-based, Human
Settings: leukemia, HL-60, 48 h
measured.quantity: pIC50
Numbers only, as −log10 of the molar value.

Field: example entries. Status: answers known.
[[record]]
smiles_string = "COc1cc([C@@H]2C3=C(COC3=O)Cc3cc4c(cc32)OCO4)cc(OC)c1OC(C)=O"
quantitative_readout = 7.52

[[record]]
smiles_string = "COc1cc([C@@H]2C3=C(COC3=O)Cc3cc4c(cc32)OCO4)cc(OC)c1OC(=O)c1ccccc1"
quantitative_readout = 6.60


From here, focus on the item given below.
Ask | What does the record list as pIC50 for `COc1cc([C@@H]2C3=C(COC3=O)Cc3cc4c(cc32)OCO4)cc(OC)c1OCc1ccccc1` ?
Reply | 6.74

###

Tested on: K562
Test: PrestoBlue cell viability, K562
Type: cell-based, Human
Details: Homo sapiens; leukemia, K562, 48 h
pIC50: −log10 of the molar value.
measured.quantity: pIC50

For every item below, please supply its pIC50.
1. COc1cc([C@@H]2C3=C(COC3=O)Cc3cc4c(cc32)OCO4)cc(OC)c1OC(=O)c1ccccc1
2. COc1cc([C@@H]2C3=C(COC3=O)Cc3cc4c(cc32)OCO4)cc(OC)c1OCc1ccccc1
3. COc1cc([C@@H]2C3=C(COC3=O)Cc3cc4c(cc32)OCO4)cc(OC)c1OC(C)=O

Reply |
1. < 4.30
2. < 4.30
3. < 4.30

Values were extracted from patent US11407761B2.
